The measured values listed here are drawn from the supplement of paper PMC9433436.

# relative kcat/Km values compiled below
Molecular target: E. coli RNase P holoenzyme (M1 P RNA + rnpA protein) (UniProt P0A7Y8)
Sequence: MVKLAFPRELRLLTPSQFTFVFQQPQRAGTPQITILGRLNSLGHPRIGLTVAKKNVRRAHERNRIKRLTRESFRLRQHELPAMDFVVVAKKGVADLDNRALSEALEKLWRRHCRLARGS
Experiment: relative kcat/Km (krel) vs genomic leader AAAGAU (relative (reference leader = 1)); higher = faster RNase P cleavage
Settings: fraction of substrate reacted: ~26-29% (28.66% repeat 1, 26.4% repeat 2)
In all, about 4,100 sequences were measured (“relative kcat/Km (krel) vs genomic leader AAAGAU”: median about 1.7, highest 2% from about 6.5 on). The sample holds the highest values, similar sequences and a random draw of the others, so the mix is not that of the screen.
RESULT_TYPE: relative kcat/Km

INSERT INTO assay_data (chain, system_tested, result_type, quantitative_result) VALUES
  ('GATTAC', 'E. coli RNase P holoenzyme (M1 P RNA + rnpA protein) (UniProt P0A7Y8)', 'relative kcat/Km', 6.1),
  ('TATTGA', 'E. coli RNase P holoenzyme (M1 P RNA + rnpA protein) (UniProt P0A7Y8)', 'relative kcat/Km', 6.93),
  ('CATTAG', 'E. coli RNase P holoenzyme (M1 P RNA + rnpA protein) (UniProt P0A7Y8)', 'relative kcat/Km', 4.08),
  ('GGAAAC', 'E. coli RNase P holoenzyme (M1 P RNA + rnpA protein) (UniProt P0A7Y8)', 'relative kcat/Km', 2.23),
  ('GGGTGC', 'E. coli RNase P holoenzyme (M1 P RNA + rnpA protein) (UniProt P0A7Y8)', 'relative kcat/Km', 1.04),
  ('CTCTAG', 'E. coli RNase P holoenzyme (M1 P RNA + rnpA protein) (UniProt P0A7Y8)', 'relative kcat/Km', 5.82),
  ('ACCGAG', 'E. coli RNase P holoenzyme (M1 P RNA + rnpA protein) (UniProt P0A7Y8)', 'relative kcat/Km', 2.44),
  ('GGAAGA', 'E. coli RNase P holoenzyme (M1 P RNA + rnpA protein) (UniProt P0A7Y8)', 'relative kcat/Km', 3.83),
  ('CATTGC', 'E. coli RNase P holoenzyme (M1 P RNA + rnpA protein) (UniProt P0A7Y8)', 'relative kcat/Km', 5.82),
  ('ACTAGG', 'E. coli RNase P holoenzyme (M1 P RNA + rnpA protein) (UniProt P0A7Y8)', 'relative kcat/Km', 0.408),
  ('CTCCAC', 'E. coli RNase P holoenzyme (M1 P RNA + rnpA protein) (UniProt P0A7Y8)', 'relative kcat/Km', 7.81),
  ('CTCTAC', 'E. coli RNase P holoenzyme (M1 P RNA + rnpA protein) (UniProt P0A7Y8)', 'relative kcat/Km', 8.97),
  ('TCCGAT', 'E. coli RNase P holoenzyme (M1 P RNA + rnpA protein) (UniProt P0A7Y8)', 'relative kcat/Km', 4.01),
  ('GAACAG', 'E. coli RNase P holoenzyme (M1 P RNA + rnpA protein) (UniProt P0A7Y8)', 'relative kcat/Km', 1.66),
  ('CCGATG', 'E. coli RNase P holoenzyme (M1 P RNA + rnpA protein) (UniProt P0A7Y8)', 'relative kcat/Km', 1.14),
  ('TGCCAT', 'E. coli RNase P holoenzyme (M1 P RNA + rnpA protein) (UniProt P0A7Y8)', 'relative kcat/Km', 4.45),
  ('GGTCTT', 'E. coli RNase P holoenzyme (M1 P RNA + rnpA protein) (UniProt P0A7Y8)', 'relative kcat/Km', 1.72),
  ('CGCCAA', 'E. coli RNase P holoenzyme (M1 P RNA + rnpA protein) (UniProt P0A7Y8)', 'relative kcat/Km', 5.09),
  ('CTACAC', 'E. coli RNase P holoenzyme (M1 P RNA + rnpA protein) (UniProt P0A7Y8)', 'relative kcat/Km', 4.74),
  ('CACCAC', 'E. coli RNase P holoenzyme (M1 P RNA + rnpA protein) (UniProt P0A7Y8)', 'relative kcat/Km', 5.55),
  ('CTACTC', 'E. coli RNase P holoenzyme (M1 P RNA + rnpA protein) (UniProt P0A7Y8)', 'relative kcat/Km', 2.14),
  ('AAATCA', 'E. coli RNase P holoenzyme (M1 P RNA + rnpA protein) (UniProt P0A7Y8)', 'relative kcat/Km', 1.8);
